- tgt: C-X-C chemokine receptor type 6 (Homo sapiens)
- assay overview: potency against CXCR6 with APJ panel – cell-based, beta-arrestin, DiscoveRx, uHTS hits, dose response (AID 624129)
- assay context: CXCR6 beta-arrestin (DiscoveRx) antagonist cell assay, CXCR6, dose range 1, mean IC50 across replicates
pIC50: −log10 of the molar value.
A collection of compounds and their measured pIC50
measurement type: pIC50

compound | comparator | recorded number
CCCC1CCC(=NNC(=S)NCCc2ccccc2)CC1 (stereo unspecified) | < | 4.10
COc1ccc(CCN2C(=O)C=CC2=O)cc1OC | = | 5.08
O=C(Nc1ccc(F)cc1)c1nc(S(=O)(=O)Cc2ccccc2)ncc1Cl | = | 4.89
COc1ccc([N+](=O)[O-])c(S(=O)(=O)c2ccc(Cl)cc2)n1 | = | 4.28
CCOC(=O)c1c(C)oc2c1c(C=NCc1ccccn1)c(O)c1ccccc12 | = | 5.45
COc1ccc([N+](=O)[O-])c(S(=O)(=O)c2ccccc2)n1 | = | 4.45

Reference source: PubChem BioAssay AID624129
